Reference source: the RNAGym collection of RNA variant scans (doi:10.1073/pnas.2313332121)

B1: TPR 5TU (parent)
chain: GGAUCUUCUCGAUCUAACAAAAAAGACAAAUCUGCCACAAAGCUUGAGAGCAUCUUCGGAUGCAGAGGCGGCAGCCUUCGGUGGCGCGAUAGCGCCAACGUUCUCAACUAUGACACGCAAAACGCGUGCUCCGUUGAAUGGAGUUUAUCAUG

variants of: B1; assay: polymerase ribozyme fitness, log enrichment relative to wild type (log ratio); higher = more active; in vitro selection for triplet polymerase activity
Variants at the floor of the assay were thinned out.
In this section we review reported polymerase ribozyme fitness (log ratio) values for a set of variants.
Give only the figure.

Known results for variants:
C5G C87U = -0.787
C27U G83A C95U U102A G126C = -3.56
C35U C54A G84A U146C = -1
C5A C76A C85G G133C = -2.61
A41U U55A C85A A150U = -2.65
A52G G58C C99U = -0.284
A21G A24U C93G = -4.02
U82G G84A U145C = -0.385
A16C A26G C35A A52G C87U = -3.98
G92U C99U U144G = 0.0398

[in] // lookup polymerase ribozyme fitness (log ratio) for U82C G84A A98U A115U G141A
[out] -2.58
